Read-out: Cytochrome P450 4A22 (Homo sapiens) (UniProt Q5TCH4)
TEST_DESCRIPTION: LTEA_HepaRG_CYP4A22: Life Technologies and Expression Analysis (LTEA) Assay for Cytochrome P450 4A22 (CYP4A22) using HepaRG (AID 2283495)
EXPERIMENTAL_PARAMETERS: mRNA level, 48 h; actives raise or lower the signal
The source made the active and inactive calls. The calls were made as follows: active = hit-call score of the fitted dose curve at least 0.9, where 1 is the maximum; inactive = score below 0.9.
RECORDED_ENDPOINT: AC50

Worked cases, answers included:
> print(dat)
                                   compound    endpoint.value
1  CC(O)CN(CCN(CC(C)O)CC(C)O)CC(C)O (stereo unspecified)          inactive
2                        CC(C)=CCCC(C)=CC=O          inactive
3  CCCN(C1CCN(C(=O)C2CCNCC2)CC1)[C@@H]1CCc2ccc(OC)cc2C1  88.2 µM (active)
4  CC(C)c1cccc(C(C)C)c1N1C(=O)c2ccc(O)cc2C1=O    72 µM (active)
5  Cc1[nH]cnc1C[C@H]1CCc2c(C)c3ccccc3n2C1=O  18.9 µM (active)
6  CCN(C(=O)c1cc(C)cc(OC[C@H](C)Nc2ccncc2)c1)C(C)C  33.8 µM (active)

Query: Sample CCOC(=O)COc1ccc2c(c1)CC(NCC(O)c1cccc(Cl)c1)CC2 (stereo unspecified) — what was its AC50?
Reply: inactive
